experiment: Compound toxicity, ATPLite total ATP levels; format: cell-based; conditions: human, HepAD38 cells; 15,000 cells/well, three days after compound addition; 50% reduction of total ATP levels relative to no drug controls
Exercise: for every item that follows, state its recorded CC50 at 3 days.

Past entries and their recorded results:
• O=S(=O)(c1cc(-c2nc(-c3ccsc3)c[nH]2)ccc1Cl)N1CCC(O)CC1 = > 30 µM
• O=S(=O)(c1cc(-c2nc(-c3ccc(Br)cc3)c[nH]2)ccc1Cl)N1CCC(O)CC1 = 10 to 30 µM
• N#Cc1cc(-c2cc(-c3ccc(Cl)c(S(=O)(=O)N4CCC(O)CC4)c3)n[nH]2)ccc1F = > 30 µM
• COC1CCN(S(=O)(=O)c2cc(-c3ncc(-c4ccc(F)c(Br)c4)[nH]3)ccc2Cl)CC1 = 10 to 30 µM
• O=S(=O)(c1cc(-c2nc(-c3ccc(Br)c(F)c3)c[nH]2)ccc1Cl)N1CCC(F)CC1 = > 30 µM
• O=S(=O)(c1cc(-c2nc(-c3ccncc3)c[nH]2)ccc1Cl)N1CCC(O)CC1 = > 30 µM

Would you mind listing CC50 at 3 days for each of the following compounds?
1. COC(=O)[C@H]1CCN(S(=O)(=O)c2cc(-c3ncc(-c4ccc(F)c(Br)c4)[nH]3)ccc2Cl)C1
2. N#Cc1cccc(-c2c[nH]c(-c3ccc(Cl)c(S(=O)(=O)N4CCC(O)CC4)c3)n2)c1
3. COC(=O)NCCCNS(=O)(=O)c1cc(-c2ncc(-c3ccc(F)c(Br)c3)[nH]2)ccc1Cl

> 30 µM
> 30 µM
10 to 30 µM

Batch: CC50 at 3 days for all items listed.
1. O=S(=O)(c1cc(-c2nc(-c3ccccn3)c[nH]2)ccc1Cl)N1CCC(O)CC1
2. O=S(=O)(c1cc(-c2nc(-c3cc(F)c(F)c(F)c3)c[nH]2)ccc1Cl)N1CCC(O)CC1

["10 to 30 µM", "10 to 30 µM"]

---

assay: Compound toxicity, ATPLite total ATP levels; assay type: cell-based; settings: human, HepAD38 cells; 15,000 cells/well, three days after compound addition; 50% reduction of total ATP levels relative to no drug controls
Give CC50 at 3 days for every item shown.

Observe how each entry below is paired with its result.
* CN(C1CCCCC1)S(=O)(=O)c1cc(-c2nc(-c3ccc(Br)c(F)c3)c[nH]2)ccc1Cl | < 10 µM
* O=S(=O)(c1cc(-c2nc3cc(F)c(F)cc3[nH]2)ccc1Cl)N1CCC(O)CC1 | > 30 µM
* O=S(=O)(c1cc(-c2nc(-c3ccc(Br)c(F)c3)c[nH]2)ccc1Cl)N1CCC(O)C(F)C1 (stereo not shown) | > 30 µM

Could you report CC50 at 3 days for every entry in the following list?
1. O=S(=O)(c1cc(-c2nc(-c3ccc(Br)c(Cl)c3)c[nH]2)ccc1Cl)N1CCC(O)CC1
2. Cc1ccccc1-c1c[nH]c(-c2ccc(Cl)c(S(=O)(=O)N3CCC(O)CC3)c2)n1
3. O=S(=O)(c1cc(-c2nc(-c3ccc(F)c(C(F)(F)F)c3)c[nH]2)ccc1Cl)N1CCC(O)CC1
4. O=S(=O)(c1cc(-c2nc(-c3ccc(Br)c(F)c3)c[nH]2)ccc1Cl)N1CCCC(O)CC1 (stereo not shown)
5. O=S(=O)(c1cc(-c2n[nH]c3ccccc23)ccc1Cl)N1CCC(O)CC1
6. O=S(=O)(c1cc(-c2ncc(-c3ccc(F)c(Br)c3)[nH]2)ccc1Cl)N1CCCCC1
7. O=S(=O)(c1cc(-c2ncc(-c3ccc(F)c(O)c3)[nH]2)ccc1Cl)N1CCC(O)CC1

< 10 µM
> 30 µM
10 to 30 µM
> 30 µM
> 30 µM
< 10 µM
> 30 µM

Consider the following items and state reported CC50 at 3 days for each.
1. O=S(=O)(c1cc(-c2ncc(-c3ccc(F)c(F)c3)o2)ccc1Cl)N1CCC(O)CC1
2. Cc1cccc(-c2c[nH]c(-c3ccc(Cl)c(S(=O)(=O)N4CCC(O)CC4)c3)n2)c1
3. O=S(=O)(c1cc(-c2ncc(-c3ccc(F)c(Br)c3)[nH]2)ccc1Cl)N1CCC(F)CC1
4. COC(=O)CNS(=O)(=O)c1cc(-c2nc(-c3ccc(Br)c(F)c3)c[nH]2)ccc1Cl
5. O=S(=O)(c1cc(-c2nc(-c3cccc(C4CC4)c3)c[nH]2)ccc1Cl)N1CCC(O)CC1
6. O=C1CCN(S(=O)(=O)c2cc(-c3ncc(-c4ccc(F)c(Br)c4)[nH]3)ccc2Cl)CC1

1. > 30 µM
2. > 30 µM
3. < 10 µM
4. > 30 µM
5. > 30 µM
6. 10 to 30 µM

Respectfully, I request CC50 at 3 days for each entry included below.
1. O=S(=O)(c1cc(-c2nc(-c3ccc(Cl)c(F)c3)c[nH]2)ccc1Cl)N1CCC(O)CC1
2. COc1cccc(-c2c[nH]c(-c3ccc(Cl)c(S(=O)(=O)N4CCC(O)CC4)c3)n2)c1
3. O=S(=O)(c1c(Cl)ccc2c(-c3ccccc3)n[nH]c12)N1CCC(O)CC1
4. COC(=O)NCCNS(=O)(=O)c1cc(-c2nc(-c3ccc(Br)c(F)c3)c[nH]2)ccc1Cl
5. O=S(=O)(c1cc(-c2nc(-c3ccc4[nH]ccc4c3)c[nH]2)ccc1Cl)N1CCC(O)CC1

1. 10 to 30 µM
2. > 30 µM
3. > 30 µM
4. < 10 µM
5. > 30 µM
